switch fluorescence ratio reference
System: ATP;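 note: ATP exposure 15 min at 22 °C before imaging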
experiment-description: switch fluorescence ratio, 500 uM ATP over buffer (Cy3 cluster intensity, sum of 5 cycles each) (fold (ratio)); higher = stronger signal-on switching upon ATP binding; sequences stand for … in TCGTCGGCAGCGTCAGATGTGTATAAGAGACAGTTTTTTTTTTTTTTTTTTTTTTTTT…TC
condition-details: aptamer strand: ATP DNA aptamer (quencher-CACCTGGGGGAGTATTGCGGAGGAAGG + anchor), 100 nM annealed; ATP concentration: 500 uM
readout-name: switch fluorescence ratio

1. AAATGATAAG 0.998
2. GTCGGCGTTG 0.992
3. TGGTTACCGA 1
4. TTTTGCTTCT 1.03
5. GTTTGAGTCT 1.01
6. GATTCTTGAG 1.01
7. CAAGTGGCAC 0.977
8. GATCGGTACG 1
9. TTTGGTGGAT 0.979
10. CTGCTTGTGA 1.02
11. GCTACACTGA 1.04
12. AAGGTAGCAC 1.03
13. CTCTGAAGCT 1.06
14. TTTCGATGTT 0.95
15. CGCGGATTGG 0.99
16. TTTAAAGGCC 0.968
17. ATGTGGAGGG 0.983
18. TGCTGGATGG 0.975
19. AGTCGGACTT 0.993
20. TTAAAACCGT 1.02
21. CCTTGGTCTT 0.998
22. TGGTTGCGGC 0.986
23. TACCTAGTTA 1.03
24. CGGTTGGTGG 1.01
25. ATGATAGTGA 0.991
26. GCCGGGATGT 1.02
27. TGAAGCAAAT 1.77
28. TGAGATACAT 1.13
29. ATTCGATAGT 1.03
30. CGGCCAGCTG 1.03
31. TATGCTAGGT 0.983
32. GACGGAGGCA 1.03
33. TTTAAATTGT 0.99

====

System: ATP;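 note: ATP exposure 15 min at 22 °C before imaging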
experiment-description: switch fluorescence ratio, 500 uM ATP over buffer (Cy3 cluster intensity, sum of 5 cycles each) (fold (ratio)); higher = stronger signal-on switching upon ATP binding; sequences stand for … in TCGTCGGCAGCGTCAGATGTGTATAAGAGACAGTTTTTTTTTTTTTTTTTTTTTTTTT…TC
condition-details: aptamer strand: ATP DNA aptamer (quencher-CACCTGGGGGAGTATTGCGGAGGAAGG + anchor), 100 nM annealed; ATP concentration: 500 uM
Attribute: switch fluorescence ratio
readout-name: switch fluorescence ratio

1. GTGACCGGCG 1.03
2. CCAAGGGGCG 0.987
3. AGGGCACAGT 0.995
4. AGTTCGTGGG 0.973
5. GAAGTATGAT 0.962
6. AGCTACTTTT 1.02
7. TTTGGCTATT 0.976
8. TTTTTGTAAA 0.994
9. CACTCTGTCA 1.04
10. CTTAGGAAAG 0.988
11. CAGTAGCGGT 1.97
12. CGGTCTGAGG 1.02
13. TAGGTAAGGT 1.03
14. TGTTACGGAG 1.01
15. TTTCGTCAGG 0.997
16. CAAAGCGCTG 0.986
17. GTCTTGGGGG 1
18. TAAATTGGTT 0.981
19. CAAAATTCCG 1.08
20. AGGGGAATAG 1.01
21. CGTACAAGTC 0.963
22. GACTGTAGGA 1.03
23. TTAGGCACAA 1.03
24. AAAGTTTCGC 1
25. CTCCGATGTG 1.57
26. TAGCAGGACT 1.76
27. CTAAAGGACT 0.999
28. TTGGGATATG 1.02
29. GTAAATAGTC 1.03
30. GAGCGCCGGG 1.01
31. GCGGATGAGC 0.995
32. TTCTTTTGGG 0.987
33. ACGGACCATG 1.11
34. GGGGAAGAAG 0.969
35. GCATTTTTAT 1.02
